Test: Pharmacokinetic study: plasma cannabinoids after single oral gavage of full-spectrum cannabis extract or individual cannabinoid
Conditions: both, mouse, plasma, po, 25 mg/kg, Cmax, mouse plasma, oral, administered as individual cannabinoid; doses mg/kg: CBD 25, THC 15, THCA 50
Property measured: Cmax (ng/mL)
Field format: number, assumed ng/mL, no unit text.

Lookup result for `C=C(C)[C@@H]1CCC(C)=C[C@H]1c1c(O)cc(CCCCC)cc1O` ; measured Cmax: 304

###

Biological target: BCRP (Homo sapiens)
Sequence (Q9UNQ0 whole entry): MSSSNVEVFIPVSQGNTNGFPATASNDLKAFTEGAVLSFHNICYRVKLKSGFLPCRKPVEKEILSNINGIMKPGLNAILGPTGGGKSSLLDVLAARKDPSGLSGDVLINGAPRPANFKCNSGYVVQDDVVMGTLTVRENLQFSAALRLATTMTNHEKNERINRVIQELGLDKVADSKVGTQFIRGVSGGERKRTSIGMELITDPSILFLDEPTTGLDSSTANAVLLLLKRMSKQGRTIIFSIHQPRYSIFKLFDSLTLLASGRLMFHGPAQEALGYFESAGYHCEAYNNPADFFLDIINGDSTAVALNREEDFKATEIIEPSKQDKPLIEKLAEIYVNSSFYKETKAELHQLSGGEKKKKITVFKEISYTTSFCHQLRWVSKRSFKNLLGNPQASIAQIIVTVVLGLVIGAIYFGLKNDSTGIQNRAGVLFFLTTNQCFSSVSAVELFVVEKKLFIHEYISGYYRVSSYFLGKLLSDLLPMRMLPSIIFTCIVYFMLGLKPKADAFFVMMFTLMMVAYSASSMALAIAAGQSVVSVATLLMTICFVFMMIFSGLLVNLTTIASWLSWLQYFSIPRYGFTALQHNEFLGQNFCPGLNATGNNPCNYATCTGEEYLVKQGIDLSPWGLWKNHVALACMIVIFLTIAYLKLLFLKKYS
Test: Bidirectional transwell substrate assay, MDCK cells expressing BCRP (with or without elacridar)
Conditions: BCRP MDCK cells, 10 µM cannabinoid, basolateral to apical
Property measured: P (B > A)

Lookup result for `C=C(C)[C@@H]1CCC(C)=C[C@H]1c1c(O)cc(CCC)cc1O` ; measured P (B > A): 90 ± 9 × 10^−5 cm/s

Lookup result for `C=C(C)[C@@H]1CCC(C)=C[C@H]1c1c(O)cc(CCCCC)c(C(=O)O)c1O` ; measured P (B > A): 162 ± 24 × 10^−5 cm/s

Lookup result for CCCCCc1cc2c(c(O)c1C(=O)O)C1C=C(C)CCC1C(C)(C)O2 (stereo not shown) [Δ^9-THCA, Δ^9-tetrahydrocannabinolic acid] ; measured P (B > A): 6 ± 2 × 10^−5 cm/s

Lookup result for `C=C(C)[C@@H]1CCC(C)=C[C@H]1c1c(O)cc(CCC)c(C(=O)O)c1O` ; measured P (B > A): 47 ± 6 × 10^−5 cm/s
